tgt: TTR purified from human plasma (Homo sapiens)
Construct: TTR purified from human plasma (> 95%)
experimental.details: ANS displacement assay (fluorescence probe displacement) for binding to TTR
experimental.parameters: low-affinity (second) binding site on TTR; ligand ≤ 2,000 nM; all data points fit to two-site binding equation; read-out: Kd2
Experimental: Three fluorescence measurements were averaged per determination, and at least three separate determinations were made at each ligand concentration. […] Binding data were evaluated by fitting the means of each determination to both a one-site plus nonspecific binding equation [y = (Bmax1 × x)/(Kd1 + x) + Ns] and a two-site binding equation [y = (Bmax1 × x)/(Kd1 + x) + (Bmax2 × x)/(Kd2 + x)]. […]
Where a name gives a salt, the structure may show the parent alone.
measure.name: Kd (nM)
Supply the numeric figure in nM, leaving out any unit text.

// solved cases for Kd follow
compound	Kd (nM)
O=S(=O)(O)Oc1ccc(-c2ccc(Cl)c(Cl)c2)cc1 [4´PCB 12 sulfate, 3,4-dichloro-4´-sulfooxy-biphenyl]	742
Oc1ccc(-c2cccc(Cl)c2)cc1Cl	624

IN: Observed Kd on TTR purified from human plasma (Homo sapiens) for Oc1ccc(-c2ccc(Cl)c(Cl)c2)cc1 , please.
OUT: 825

IN: Lookup: Kd / TTR purified from human plasma (Homo sapiens) / O=S(=O)(O)Oc1ccc(-c2cccc(Cl)c2)cc1Cl [4´PCB 11 sulfate, 3,3´-dichloro-4´-sulfooxy-biphenyl]
OUT: 624

Entry source: paper PMC3672920
